The measured values listed here are drawn from PubChem BioAssay (NCI).

Below, each entry is listed with its recorded growth.
- Test system: COLO 205 colon
- assay comment: NCI-60 one-dose screen, 48 h (100 = growth as untreated, 0 = no growth, -100 = all killed)
- condition description: 10 µM unless noted
Compounds without any hit were thinned out: in the full panel of roughly 83,000, 20% have a hit. Activity calls are given as the source filed them. The calls were made as follows: active = growth percent below 10; inactive = the rest.

// below: answered molecules
Cc1ccnc2c(OCc3ccccc3)cccc12 ... 113% (inactive)
CC1(c2ccccc2)OC1C(=O)O (centres undefined) ... 115% (inactive)
COc1ccc2c(c1)c(-c1nc(-c3cn(C)c4ncccc34)cs1)cn2CCN ... 77% (inactive)

# input Using known records, supply growth for Cc1ccsc1-c1ccc2c(c1)COC2(CCCN(C)C)c1ccc(F)cc1 (centres undefined)
# output -43.9% (active)

---

- Test system: SK-OV-3 ovarian
- assay comment: NCI-60 one-dose screen, 48 h (100 = growth as untreated, 0 = no growth, -100 = all killed)
- condition description: 10 µM unless noted
The panel holds about 83,000 compounds, 20% with a hit somewhere; the sample as a whole holds those more often.
quantity kind: growth (%)
# output: bare number, implied unit %

// below: answered compounds
CC1(C)C(=O)/C(=C\c2ccco2)C[C@]2(C)[C@H]3CC[C@@H]4[C@@H](C(=O)/C=C/c5ccco5)CC[C@@]4(C)[C@]3(C)CC[C@@H]12 ... 109
CCOC(=O)C1OC1(c1ccccc1)c1ccccc1 (stereo not drawn) ... 112
Cc1ccc(-c2nc3ccc(Cl)cc3c(=O)n2N2C(=O)CSC2c2ccccc2Cl)cc1 (stereo not drawn) ... 36.2
Cc1nc([P+](c2ccccc2)(c2ccccc2)c2ccccc2)c(Sc2sc(-c3ccccc3)nc2[P+](c2ccccc2)(c2ccccc2)c2ccccc2)o1 ... -12.2
C=C(C)[C@@H]1CC[C@]2(/C=N/Nc3ccncc3)CC[C@]3(C)[C@H](CC[C@@H]4[C@@]5(C)CCCNC(C)(C)[C@@H]5CC[C@]43C)[C@@H]12 ... 113
COc1cccc(-c2nn(-c3ccccc3)cc2-c2ccnc(NCCCNS(=O)(=O)c3ccc(Br)cc3)c2)c1 ... 64.8
NNC(=O)c1nc2ccccc2[nH]1 ... 83.3
O=C1c2ccccc2NC(c2cn(-c3ccccc3)nc2-c2cccs2)N1Cc1ccccc1 (stereo not drawn) ... 84
COc1cccc(-c2nn(-c3ccccc3)cc2-c2ccnc(NCCCNS(=O)(=O)c3ccccc3)c2)c1 ... 43
O=c1c(CNc2ccc(S(=O)(=O)Nc3nccs3)cc2)coc2ccccc12 ... 102

# input Using known records, supply growth for COC(=O)CCCCCn1c2ccccc2c2c3c(c4c5ccccc5[nH]c4c21)C(=O)N(O)C3=O
# output 70.2

# input Using known records, supply growth for Cc1cc(Nc2ccc(F)cc2)nc(N2CCN(c3ccnc4cc(Cl)ccc34)CC2)n1
# output 46.8

# input Using known records, supply growth for CC[C@H](CC[C@@H](C)[C@H]1CC[C@H]2[C@@H]3/C(=C/c4cccnc4)C(=O)C4=CC(=O)CC[C@]4(C)[C@H]3CC[C@]12C)C(C)C
# output 112

# input Using known records, supply growth for COc1ccc2nc(-c3cc(-c4cc(OC)c(OC)c(OC)c4)n[nH]3)[nH]c2c1
# output 33.8

---

Below, each entry is listed with its recorded growth.
- System: UACC-62 melanoma
- assay comment: NCI-60 one-dose screen, 48 h (100 = growth as untreated, 0 = no growth, -100 = all killed)
- condition description: 10 µM unless noted
- Experimental: Growth inhibition of the UACC-62 human tumor cell line is measured as a screen for anti-cancer activity. Cells are grown in 96 well plates and exposed to the test compound for 48 hours. Compounds are tested at a single concentration, which is 10^-5 M for most compounds. The reported endpoint is percent growth (GI% or GIPRCNT), where numbers from 0 - 100% represent growth inhibition, and numbers from -100% - 0 represent cell death. For example, a value of 40 represents 60% growth inhibition. […]
Compounds without any hit were thinned out: in the full panel of roughly 83,000, 20% have a hit.
# output: bare number, implied unit %

// below: answered molecules
O=c1[nH]ncc(Br)c1Br ... 87.3
CC(=O)Oc1ccccc1C(=O)/C=C/c1cccc([N+](=O)[O-])c1 ... 85.7
C#CCn1c2c(c3ccccc31)C[C@]1(C)[C@H]3CC[C@@H]4[C@@H]5C(=CCC[C@H]5C(=C)C)CC[C@@]4(C)[C@]3(C)CC[C@H]1C2(C)C ... 95.2
N#Cc1c(-c2ccco2)nc2c(c(-c3ccccc3)nn2-c2ccccc2)c1-c1ccc(O)cc1 ... 89.2
C=C(C)[C@@H]1CC[C@]2(C(=O)NNC(=O)c3cccnc3)CC[C@]3(C)[C@H](CC[C@@H]4[C@@]5(C)CCCNC(C)(C)[C@@H]5CC[C@]43C)[C@@H]12 ... 91

# ---- query molecule ----
# input Using known records, supply growth for N#CC1C(=N)Cc2ccccc2-c2ccccc21 (stereo not drawn)
# output 39.1
